- assayed.system: T1, EBV gp350 expressed on the surface of stably transfected CHO cells (Epstein-Barr virus, UniProt P03200 1-907)
- T1 construct: also called native gp350; gp350 expressing CHO cells
- T1 sequence: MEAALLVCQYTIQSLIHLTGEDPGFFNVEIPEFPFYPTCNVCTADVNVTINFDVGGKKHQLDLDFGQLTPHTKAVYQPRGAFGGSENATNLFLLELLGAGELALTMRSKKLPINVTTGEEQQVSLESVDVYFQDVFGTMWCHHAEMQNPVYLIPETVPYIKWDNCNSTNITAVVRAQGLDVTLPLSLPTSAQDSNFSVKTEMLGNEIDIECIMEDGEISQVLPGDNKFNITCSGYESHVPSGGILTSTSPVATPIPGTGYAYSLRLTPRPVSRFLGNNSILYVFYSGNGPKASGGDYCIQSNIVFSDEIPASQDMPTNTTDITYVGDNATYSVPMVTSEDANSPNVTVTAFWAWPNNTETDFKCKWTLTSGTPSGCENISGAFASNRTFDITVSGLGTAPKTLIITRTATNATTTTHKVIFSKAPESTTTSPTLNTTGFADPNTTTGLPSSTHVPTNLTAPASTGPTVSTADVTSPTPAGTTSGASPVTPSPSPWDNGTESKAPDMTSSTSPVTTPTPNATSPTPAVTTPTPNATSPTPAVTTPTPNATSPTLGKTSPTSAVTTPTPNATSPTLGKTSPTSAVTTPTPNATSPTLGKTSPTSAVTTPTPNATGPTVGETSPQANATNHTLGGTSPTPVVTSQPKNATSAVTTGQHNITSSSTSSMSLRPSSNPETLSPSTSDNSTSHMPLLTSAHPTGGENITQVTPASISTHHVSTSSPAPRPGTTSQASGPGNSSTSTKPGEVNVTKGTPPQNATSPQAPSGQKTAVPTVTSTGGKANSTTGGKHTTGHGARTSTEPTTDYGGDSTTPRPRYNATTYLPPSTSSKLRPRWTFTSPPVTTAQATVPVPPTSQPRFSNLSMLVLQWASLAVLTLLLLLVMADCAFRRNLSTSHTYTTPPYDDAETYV
- experiment.summary: cross-competition on gp350-CHO cells (flow), unlabeled 500 µg/ml; competitor: biotinylated HB20
Below, each of the binders is paired with its reported % inhibition of biotinylated nAbs value.
All answers are understood in %, so give the number only.

>  <binder>
HB11 (antibody, V domains shown) VH: PSLVKPSQTLSLTCSVTGDSITSGFWNWIRKFPGNKLEYMGYISYSGSTYYNPSLKSRISITRDTSKNQYYLQLNSVTTEDTATYYCARGNGGNYDWYFDVWGAGTTVTVSS VL: AIMSASLGEKVTMSCRASSSVNFMNWYQQKSDDSPKLLIYYISNLAPGVPARFSGSGSGNSYSLTISGMEGEDAATYYCQQFTSSPSWTFGGGTKLEIKR

>  <measured.metric>
% inhibition of biotinylated nAbs

>  <recorded.number>
3

$$$$
>  <binder>
HB20 (antibody, V domains shown) VH: ELVKPGASVKLSCKASGYTFTSYWIQWVKQRPGQGLEWIGEINPTNGHTNYNEKFKTKATLTVDKSSSTAYMRLSSLTSEDSAVYYCARNLYYYGRPDYWGQGTSVTVSS VL: SSLSASLGDRVTISCRASQDIGNYLNWYQQKPDGTVKLLIYYTSRLHSGVPSRFSGSGSGTDYSLTISNLEQEDIATYFCQQGNALPPTFGGGTKLEIKR

>  <measured.metric>
% inhibition of biotinylated nAbs

>  <recorded.number>
59

$$$$

# next binder below
Query block: What measured % inhibition of biotinylated nAbs goes with murine 72A1 (m72A1), anti-EBV gp350 neutralizing antibody from hybridoma HB168 (antibody, V domains shown, also called nAb-72A1; mouse 72A1) VH: EVQLQQSGPELVKPGTSMKISCKASGSSFTDYTMNWMKQSHGKNLEWIGLINPYNGGTRYNQKFKGKATLTLDKSSSTAYMEVLSLTSEDSAVYYCAGGLRRVNWFAYWGQGTLVSVSA VL: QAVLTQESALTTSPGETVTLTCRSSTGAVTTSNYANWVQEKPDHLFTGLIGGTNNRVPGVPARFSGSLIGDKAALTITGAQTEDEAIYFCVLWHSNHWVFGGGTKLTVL ?
Result block: 31

src = patent US20210115113A1
